# TARGET OR SYSTEM: Acetylcholinesterase (Rattus norvegicus, UniProt P37136)
# Sequence (P37136 whole entry): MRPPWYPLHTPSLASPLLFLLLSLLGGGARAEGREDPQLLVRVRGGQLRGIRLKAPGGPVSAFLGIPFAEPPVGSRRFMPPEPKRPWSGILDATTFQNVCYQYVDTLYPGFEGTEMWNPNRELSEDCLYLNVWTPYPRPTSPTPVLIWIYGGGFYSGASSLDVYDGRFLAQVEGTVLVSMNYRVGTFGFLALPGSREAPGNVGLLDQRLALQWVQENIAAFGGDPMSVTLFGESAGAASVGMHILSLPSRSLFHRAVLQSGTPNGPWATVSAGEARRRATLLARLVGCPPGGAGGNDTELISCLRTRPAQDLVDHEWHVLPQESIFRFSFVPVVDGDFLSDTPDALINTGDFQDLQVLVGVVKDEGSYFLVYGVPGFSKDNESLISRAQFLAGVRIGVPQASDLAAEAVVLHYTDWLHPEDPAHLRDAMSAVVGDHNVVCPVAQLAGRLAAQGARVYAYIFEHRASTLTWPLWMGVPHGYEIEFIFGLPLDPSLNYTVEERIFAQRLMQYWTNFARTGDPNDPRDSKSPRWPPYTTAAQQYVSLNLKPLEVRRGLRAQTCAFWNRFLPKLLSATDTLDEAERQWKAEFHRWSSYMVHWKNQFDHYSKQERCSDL
Here, each record is paired with measured IC50 data.
Give a bare numeral; the unit nM is implied.

MOLECULE | UNIT INFO | READOUT NUMBER
COc1cc2c(cc1OC)C(=O)C(Oc1ccc(CN3CCN(C)CC3)cc1)C2 (centres undefined) | nM | 1420

Reported IC50 for COc1cc2c(cc1OC)C(=O)C(Oc1cccc(C(C)N3CCCCC3)c1)C2 (centres undefined) was 3580

Reported IC50 for CCN(CC)C(C)c1ccc(OC2Cc3cc(OC)c(OC)cc3C2=O)cc1 (centres undefined) was 220

Reported IC50 for COc1cc2c(cc1OC)C(=O)C(Oc1ccc(C(C)N3CCOCC3)cc1)C2 (centres undefined) was 3140

Reported IC50 for COc1cc2c(cc1OC)C(=O)C(Oc1ccc(C(C)N3CCCCC3)cc1)C2 (centres undefined) was 130

Reported IC50 for COc1cc2c(cc1OC)C(=O)C(Oc1ccc(CN3CCCC3)cc1)C2 (centres undefined) was 50

Reported IC50 for COc1cc2c(cc1OC)C(=O)C(Oc1ccc(C(C)N3CCCC3)cc1)C2 (centres undefined) was 140

Reported IC50 for COc1cc2c(cc1OC)C(=O)C(Oc1cccc(C(C)N(C)C)c1)C2 (centres undefined) was 820

Reported IC50 for CCN(CC)Cc1cccc(OC2Cc3cc(OC)c(OC)cc3C2=O)c1 (centres undefined) was 2280
